Hey, just so you know, these numbers are from ChEMBL document CHEMBL1127972.

Target: Muscarinic acetylcholine receptor M1 (Rattus norvegicus)
Sequence (P08482 whole entry): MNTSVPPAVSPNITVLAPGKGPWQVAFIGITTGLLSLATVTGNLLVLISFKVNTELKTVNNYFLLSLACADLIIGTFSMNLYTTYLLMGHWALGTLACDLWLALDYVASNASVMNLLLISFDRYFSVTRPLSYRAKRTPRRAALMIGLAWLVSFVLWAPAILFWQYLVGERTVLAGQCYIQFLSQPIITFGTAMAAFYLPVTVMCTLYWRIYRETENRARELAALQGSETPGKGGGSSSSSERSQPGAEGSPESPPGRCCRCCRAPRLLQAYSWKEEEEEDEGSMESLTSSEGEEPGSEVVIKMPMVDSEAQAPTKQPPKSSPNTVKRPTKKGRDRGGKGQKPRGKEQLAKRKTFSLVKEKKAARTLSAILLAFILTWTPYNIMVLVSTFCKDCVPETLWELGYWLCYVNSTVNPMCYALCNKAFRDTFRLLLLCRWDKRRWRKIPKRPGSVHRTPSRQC
Test: In vitro binding affinity towards Muscarinic acetylcholine receptor M1 by the displacement of [3H]oxotremorine-M in rat brain membranes
Assay type: cell membranes
pIC50: −log10 of the molar value.
pIC50 listing for selected molecules.
measurementKind: pIC50

1. CCCOc1nsnc1C1=CC(C)CN(C)C1 (centres undefined); 7.77
2. C=CCCCOc1nsnc1C1=CCC(C)N(C)C1 (centres undefined); 8.00
3. CCCCOc1nsnc1C1=CCC(C)N(C)C1 (centres undefined); 8.05
4. COc1nsnc1C1=CC(C)CN(C)C1 (centres undefined); 6.22
5. CCCCCCOc1nsnc1C1=CCC(C)N(C)C1 (centres undefined); 8.22
6. CCCOc1nsnc1C1=CCCN(C)C1; 8.70
7. CCOc1nsnc1C1=CCC(C)N(C)C1 (centres undefined); 7.96
8. CCC#CCCOc1nsnc1C1=CCC(C)N(C)C1 (centres undefined); 8.22
9. COc1nsnc1C1=C(C)CCN(C)C1; 6.00
10. CCCCCCOc1nsnc1C1=C(C)CCN(C)C1; 7.00
11. CCCCCCOc1nsnc1C1=CCCN(C)C1C (centres undefined); 7.08
12. CCCCCOc1nsnc1C1=CCC(C)N(C)C1 (centres undefined); 8.05
13. CCCCCCOc1nsnc1C1=CC(C)CN(C)C1 (centres undefined); 7.85
14. CCCCCCOc1nsnc1C1=CC2(C)CCCCC2(C)N(C)C1 (centres undefined); 6.00
